# assay-method-text: NCI Yeast Anticancer Drug Screen. Data for the rad50 strain (AID 155)
# particulars: S. cerevisiae rad50 strain growth inhibition; at 50.0 µM
# Experimental: Growth inhibition of yeast strains with defined genetic alterations is measured as a screen for potential anti-cancer activity. Selected strains with alterations in DNA damage repair or cell cycle control were exposed to compounds and growth inhibition was measured relative to vehicle treated controls. The strain used in this assay is rad50
Compounds without any hit were thinned out: in the full panel of roughly 79,000, 15% have a hit. Active and inactive are the calls of the source. No stated cut-off is given here; in the data, active means growth inhibition above about 70%; inactive means the rest.
Please answer using one outcome listed in active, inactive

How did this test come out for Clc1ccc(/C=N/Nc2c3ccccc3nc3ccccc23)c(Cl)c1 ?
active

How did this test come out for CCOC(=O)C1CC(C(=O)OCC)C(=O)C1=O (configuration not stated) ?
active

How did this test come out for OC(c1ccccc1)c1cccc(Br)c1 (configuration not stated) ?
active

Just for reference, PubChem BioAssay (NCI) is where these values come from.
